biological target: Man(a1-2)Man(a1-3)[Man(a1-2)Man(a1-6)]Man(a1-6)[Man(a1-2)Man(a1-2)Man(a1-3)]Man(b1-4)GlcNAc(b1-4)GlcNAc; assay: glycan array binding signal (z-score within array); higher = stronger binding; conditions: glycan notation: IUPAC condensed, linker removed
About 410 targets per protein were measured; listed, in parts, are those with the strongest signals and a random draw of the rest.
ASSAY ENDPOINT: glycan array binding signal (z-score)
Respond numerically, and do not add a unit to the figure.

Worked cases, answers included:
BINDER	glycan array binding signal (z-score)
ConA (Canavalia ensiformis), P02866 (protein) MAISKKSSLFLPIFTFITMFLMVVNKVSSSTHETNALHFMFNQFSKDQKDLILQGDATTGTDGNLELTRVSSNGSPQGSSVGRALFYAPVHIWESSAVVASFEATFTFLIKSPDSHPADGIAFFISNIDSSIPSGSTGRLLGLFPDANVIRNSTTIDFNAAYNADTIVAVELDTYPNTDIGDPSYPHIGIDIKSVRSKKTAKWNMQNGKVGTAHIIYNSVDKRLSAVVSYPNADSATVSYDVDLDNVLPEWVRVGLSASTGLYKETNTILSWSFTSKLKSNEIPDIATVV	3.33
CBP21 (Serratia marcescens), O83009 (protein) MNKTSRTLLSLGLLSAAMFGVSQQANAHGYVESPASRAYQCKLQLNTQCGSVQYEPQSVEGLKGFPQAGPADGHIASADKSTFFELDQQTPTRWNKLNLKTGPNSFTWKLTARHSTTSWRYFITKPNWDASQPLTRASFDLTPFCQFNDGGAIPAAQVTHQCNIPADRSGSHVILAVWDIADTANAFYQAIDVNLSK	2.53

Next binder, glycan array binding signal (z-score) to be filled in.
So what does the record say about glycan array binding signal (z-score) for AidA (Burkholderia cenocepacia) (protein) MSRVTDVLVSFDTETILKKYPNPSKNPAAPTLIDWRYVYMVTNQDNVISGQAGGELDLKAQVGDLIRWRETSLSLGFENQVVFYKFIGNVGNDLISTPTPRVAEASIPVPNTSKPEVPTCQKVANYYWSSECLKVGRVTYHFQFQIIDRNCQSQGCFSWDPFISIHN ?
0.274
